assay: M. tuberculosis growth inhibition, HTS (AID 449762);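 note: bacterial growth assessed after seven days of incubation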; details: M. tuberculosis H37Rv growth inhibition, 7H9 media; at 25 µM; stronger effect = higher value
Among all 330,000 compounds or so, about 1,900 (0.58%) were called active. About 4% were inconclusive and are not listed. Not all results are given here. Entries with a potency or affinity are not part of this list.
measured-endpoint: inhibition (%)
Output spec: scalar in %, unitless text.

Answered cases to consult:
Fill blank: measured inhibition of the compound `O=C(Nc1ccncc1)c1cc(-c2cccc(Br)c2)nc2ccccc12` is ____.
-13.1

How about `Oc1ccc(C=NCCc2ccccc2)cc1` ?
0.33

How about `O=C(CN1C(=O)COc2ccccc2C1=O)c1ccc2c(c1)OCCO2` ?
4.6

How about COc1ccc(NC(=O)C(C)NS(=O)(=O)c2ccccc2)cc1Cl (stereo unspecified) ?
-8.72

How about `CCN(c1ccc(OC)cc1)S(=O)(=O)c1ccc2c(c1)CCN2C(=O)CCC(=O)O` ?
-2.77

How about `CCOC(=O)N=Nc1c(O)n(CC(=O)OC)c2ccccc12` ?
-0.16

How about COc1ccc(NC(=O)C(C)NS(=O)(=O)c2ccc(NC(C)=O)cc2)cc1Cl (stereo unspecified) ?
-1.73

How about `CN1CCN(c2ccc(NC(=O)c3cccs3)cc2)CC1` ?
0.58

How about `CC(C)C[C@H](NC(=O)CCCn1nnc2ccccc2c1=O)C(=O)O` ?
7.06

How about O=C(COC(=O)CNC(=O)c1ccc(Cl)c([N+](=O)[O-])c1)NCC1CCCO1 (stereo unspecified) ?
-15.8

***
Fill blank: measured inhibition of the compound `O=C(O)/C=C/C(=O)Nc1ccccc1-c1ccccc1NC(=O)/C=C/C(=O)O` is ____.
3.08

How about `CCOc1ccc(NC(=O)/C(=C\c2ccc(OC(C)=O)c(OC)c2)NC(C)=O)cc1` ?
4.59

---

The following compounds are listed with their measured inhibition values.
experiment: M. tuberculosis growth inhibition, HTS (AID 449762);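 note: bacterial growth assessed after seven days of incubation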; details: M. tuberculosis H37Rv growth inhibition, 7H9 media; at 25 µM; stronger effect = higher value
The campaign covered roughly 330,000 compounds. About 1,900 (0.58%) were called active. About 4% were inconclusive and are not listed. A selection follows. Potency and affinity values are given separately.
Output spec: scalar in %, unitless text.

Fill blank: measured inhibition of the compound `CSc1nc2nc(-c3ccc(F)cc3)c(CCN3CCN(C)CC3)cn2n1` is ____.
-4.6

How about `OCCN1CCN(c2nc(NCc3ccco3)c3ccccc3n2)CC1` ?
-0.19

How about `O=c1cc(CSCc2ccc(Cl)cc2)[nH]c(=O)[nH]1` ?
-3.47

How about CSc1cccc(NC(=O)C2C3C=CC4(O3)C2C(=O)N(CCCN2CCOCC2)C4C(=O)NC2CCCCC2)c1 (stereo not given) ?
3.36

How about `Cc1ccc(NC(=S)N2CCN(c3ccccn3)CC2)c(C)c1` ?
5.35

***
Fill blank: measured inhibition of the compound `CCCC(=O)Nc1ccc(C(N)=O)cc1` is ____.
-1.73

How about CC1Cc2ccccc2N1C(=O)CSc1nc2ccccc2n1CC(=O)N1CCOCC1 (stereo not given) ?
7.22

How about `CCOc1cc(/C=C2\COc3ccccc3C2=O)ccc1OCC(=O)N(C)C` ?
36.2

How about `O=C(COC(=O)c1ccc(Cl)nc1)NNC(=O)c1ccc(Cl)cc1` ?
5.61

How about `CCc1cc(C(=O)NNC(=O)CCN2CCN(c3ccccc3)CC2)sc1C` ?
-4.59

How about `CSc1ncccc1C(=O)OCC(=O)N1CCc2ccccc21` ?
-3.03

How about COc1cc(C(=O)OC2CC3CCC2(C)C3(C)C)ccc1OC(C)=O (stereo not given) ?
-10.7
